- Tested on: human prostate cancer cell line PC-3
- Test protocol: Flow cytometric-based screening assay for internalization in PC-3 cells
- Assay type: cell-based
- Measurement parameters: Table 8; mutants of E3-45, PC-3
- Experimental: In illustrating a screening process for internalization, from clones selected for further analysis from the selection process, a flow cytometric-based assay for binding and/or internalization was utilized. […] A first portion of the cells was then treated with RNAse to remove any of the clone remaining bound to the surface of the cells, so as to allow detection and quantitation of internalized clone (i.e., measuring internalization). […]
Entries and their measured Fold increase (mean fluorescence intensity / unstained cells) follow.
Measurement label: Fold increase (mean fluorescence intensity / unstained cells)

| Substance | Result number |
| --- | --- |
| mutant 8: mutant of E3-45 with loop portion mutated to 5′ to 3′ UUUCGAG (GGGUGCGGUACUUUCGGGCUGGCACUUUCGAAAGCCCCUCAGGACG; listed as RNA, chemistry not fully specified) | 1.5 |
| mutant 2: mutant of E3-45 with the conserved motif UUUCGG mutated in a loop portion (GGGUGCGGUACUAAAGGGCUUUCGGCAACAUCAGCCCAAAAGGACG; aptamer; listed as RNA, chemistry not fully specified) | 1.5 |
| mutant 7: site-directed mutant of E3-45 in a loop portion containing a conserved motif (GGGUGCGGUACUUUCGGGCUUUCGGCAACUAUAGCCCCUCAGGACG; listed as RNA, further chemistry not given here) | 1.8 |
| mutant 5: site-directed mutant of E3-45 in a loop portion containing a conserved motif (GGGUGCGGUACUUUCGGGCUUUCGGCUUUAUCAGCCCCUCAGGACG; listed as RNA, further chemistry not given here) | 1.9 |

----------
- System: human prostate cancer cell line PC-3
- Test protocol: Flow cytometric-based screening assay for internalization in PC-3 cells
- Assay type: cell-based
- Measurement parameters: Table 8; mutants of E3-45, PC-3
In the oligonucleotide strings, read from the 5' end, every base follows the letter of its sugar. An asterisk marks phosphorothioate; unmarked linkages are phosphodiester. Other units and linkages are bracketed, terminal groups are in braces. A string of capitals states the bases alone. r = 2'-OH (RNA); f = 2'-fluoro
// label = T if Fold increase (mean fluorescence intensity / unstained cells) is not less than 2, otherwise F

| Substance | Experimental system | Label class |
| --- | --- | --- |
| mutant 3: mutant of E3-45 with the conserved motif UUUCGG mutated in a loop portion (GGGUGCGGUACUUUCGGGCUAAAGGCAACAUCAGCCCCUCAGGACG; aptamer; listed as RNA, chemistry not fully specified) | human prostate cancer cell line PC-3 | F |
| GGGUGCGGUACUUUCGGGCUUUCGGCAACAUCAGCCCCUCAGGACG (rGrGrGfUrGfCrGrGfUrAfCfUfUfUfCrGrGrGfCfUfUfUfCrGrGfCrArAfCrAfUfCrArGfCfCfCfCfUfCrArGrGrAfCrG; aptamer; Alexa 647 label attached, position not given here, further chemistry not fully specified) [E3-45, truncation of iNA E3, 45 bases; wildtype for mutants 1-8] | human prostate cancer cell line PC-3 | T |
| mutant 1: assay control mutant of E3-45, mutation in a loop not containing the conserved motif UUUCGG (GGGUGCGAAACUUUCGGGCUUUCGGCAACAUCAGCCCCUCAGACCG; listed as RNA, chemistry not fully specified) | human prostate cancer cell line PC-3 | T |
| mutant 6: site-directed mutant of E3-45 in a loop portion containing a conserved motif (GGGUGCGGUACUUUCGGGCUUUCGGCCCCAUCAGCCCCUCAGGACG; listed as RNA, further chemistry not given here) | human prostate cancer cell line PC-3 | F |

----------
Catalogue of Mean (mean fluorescence intensity) values
- Test system: human prostate cancer cell line PC-3
- Test protocol: Flow cytometric-based screening assay for internalization in PC-3 cells
- Format: cell-based
- Measurement parameters: Table 8; mutants of E3-45, PC-3
In the oligonucleotide strings, read from the 5' end, every base follows the letter of its sugar. An asterisk marks phosphorothioate; unmarked linkages are phosphodiester. Other units and linkages are bracketed, terminal groups are in braces. A string of capitals states the bases alone. r = 2'-OH (RNA); f = 2'-fluoro
Measurement label: Mean (mean fluorescence intensity)

| Substance | Result number |
| --- | --- |
| mutant 8: mutant of E3-45 with loop portion mutated to 5′ to 3′ UUUCGAG (GGGUGCGGUACUUUCGGGCUGGCACUUUCGAAAGCCCCUCAGGACG; listed as RNA, chemistry not fully specified) | 130 |
| mutant 3: mutant of E3-45 with the conserved motif UUUCGG mutated in a loop portion (GGGUGCGGUACUUUCGGGCUAAAGGCAACAUCAGCCCCUCAGGACG; aptamer; listed as RNA, chemistry not fully specified) | 142 |
| GGGUGCGGUACUUUCGGGCUUUCGGCAACAUCAGCCCCUCAGGACG (rGrGrGfUrGfCrGrGfUrAfCfUfUfUfCrGrGrGfCfUfUfUfCrGrGfCrArAfCrAfUfCrArGfCfCfCfCfUfCrArGrGrAfCrG; aptamer; Alexa 647 label attached, position not given here, further chemistry not fully specified) [E3-45, truncation of iNA E3, 45 bases; wildtype for mutants 1-8] | 470 |

----------
Each entry below carries its recorded Mean (mean fluorescence intensity).
- Test system: human prostate cancer cell line PC-3
- Test protocol: Flow cytometric-based screening assay for internalization in PC-3 cells
- Type: cell-based
- Measurement parameters: Table 8; mutants of E3-45, PC-3

| Substance | Mean (mean fluorescence intensity) |
| --- | --- |
| mutant 2: mutant of E3-45 with the conserved motif UUUCGG mutated in a loop portion (GGGUGCGGUACUAAAGGGCUUUCGGCAACAUCAGCCCAAAAGGACG; aptamer; listed as RNA, chemistry not fully specified) | 127 |
| mutant 4: mutant of E3-45 with the conserved motif UUUCGG mutated in a loop portion (GGGUGCGGUACUUUCGGGCUUUCAAAAACAUCAGCCCCUCAGGACG; aptamer; listed as RNA, chemistry not fully specified) | 176 |
| mutant 6: site-directed mutant of E3-45 in a loop portion containing a conserved motif (GGGUGCGGUACUUUCGGGCUUUCGGCCCCAUCAGCCCCUCAGGACG; listed as RNA, further chemistry not given here) | 167 |
| mutant 5: site-directed mutant of E3-45 in a loop portion containing a conserved motif (GGGUGCGGUACUUUCGGGCUUUCGGCUUUAUCAGCCCCUCAGGACG; listed as RNA, further chemistry not given here) | 164 |

----------
- Test system: human prostate cancer cell line PC-3
- Test protocol: Flow cytometric-based screening assay for internalization in PC-3 cells
- Format: cell-based
- Measurement parameters: Table 8; mutants of E3-45, PC-3
- Protocol: In illustrating a screening process for internalization, from clones selected for further analysis from the selection process, a flow cytometric-based assay for binding and/or internalization was utilized. […] A first portion of the cells was then treated with RNAse to remove any of the clone remaining bound to the surface of the cells, so as to allow detection and quantitation of internalized clone (i.e., measuring internalization). […]
Here, each record is paired with measured Mean (mean fluorescence intensity) data.
Measurement label: Mean (mean fluorescence intensity)

| Substance | Measurement label | Result number |
| --- | --- | --- |
| mutant 7: site-directed mutant of E3-45 in a loop portion containing a conserved motif (GGGUGCGGUACUUUCGGGCUUUCGGCAACUAUAGCCCCUCAGGACG; listed as RNA, further chemistry not given here) | Mean (mean fluorescence intensity) | 153 |
| mutant 1: assay control mutant of E3-45, mutation in a loop not containing the conserved motif UUUCGG (GGGUGCGAAACUUUCGGGCUUUCGGCAACAUCAGCCCCUCAGACCG; listed as RNA, chemistry not fully specified) | Mean (mean fluorescence intensity) | 405 |
